PROPERTY: melting point

Examples with their reported melting point follow.
COMPOUND	REPORTED RESULT
CCCN(CCC)C(=O)n1cnc(S(=O)C(C)C)n1 (centres undefined)	15 to 20 °C
O=C(NCCCSc1ccncc1)c1cc(Br)c(Br)s1	129 to 130 °C
CCOC(=O)c1ccc(-c2ccc3c(c2)OCO3)cc1	92.5 to 93.5 °C

Then there is this compound:
Give me measured melting point, please, for this compound: COC(=O)COc1c(I)cc(-c2c3ccccc3cc3sc4ccccc4c23)cc1I
203 to 205 °C

###

PROPERTY: melting point

Examples with their reported melting point follow.
MOLECULE	melting point
OC(Cc1ccccc1Cl)(Cn1cncn1)C1(Cl)CC1 (centres undefined)	107 °C
CC(C)C(C)C(=O)NC(C)(Cc1c[nH]c2ccccc12)C(=O)NCCc1ccccc1 (centres undefined)	104 to 109 °C
Cc1nc(N(C)C)sc1C(=O)c1ccc(N)c([N+](=O)[O-])c1	225 to 228 °C

Give me measured melting point, please, for this molecule: O=C(C=C(O)c1cccs1)C1CCN(Cc2ccccc2)CC1
80 to 83 °C

Give me measured melting point, please, for this molecule: Cc1ccc(NC(=O)NCC(=O)N(CC(=O)OC(C)(C)C)c2ccccc2C(=O)c2ccccc2)cc1
182 to 183 °C

Give me measured melting point, please, for this molecule: CCCCCCCCCCCCCCCCOCC(CO)Oc1cc(-c2ccccc2)on1 (centres undefined)
45.5 to 46.5 °C

Give me measured melting point, please, for this molecule: CNc1ccnc(C2=Cc3ccccc3CC2)c1
106 to 107 °C

Give me measured melting point, please, for this molecule: COc1cc(/C=C/C(=O)CC(=O)C2(C)CC2)ccc1O
78 to 80 °C

Give me measured melting point, please, for this molecule: COc1ccc(Nc2nc(NC3CCNCC3)nc(N(C)N3CCCCCC3)n2)cc1Cl
81 °C
